# tgt: HiBit-WIZ fusion protein (Homo sapiens, UniProt O95785+Q96SW2)
# Sequence (O95785 whole entry, the tested form may be a part): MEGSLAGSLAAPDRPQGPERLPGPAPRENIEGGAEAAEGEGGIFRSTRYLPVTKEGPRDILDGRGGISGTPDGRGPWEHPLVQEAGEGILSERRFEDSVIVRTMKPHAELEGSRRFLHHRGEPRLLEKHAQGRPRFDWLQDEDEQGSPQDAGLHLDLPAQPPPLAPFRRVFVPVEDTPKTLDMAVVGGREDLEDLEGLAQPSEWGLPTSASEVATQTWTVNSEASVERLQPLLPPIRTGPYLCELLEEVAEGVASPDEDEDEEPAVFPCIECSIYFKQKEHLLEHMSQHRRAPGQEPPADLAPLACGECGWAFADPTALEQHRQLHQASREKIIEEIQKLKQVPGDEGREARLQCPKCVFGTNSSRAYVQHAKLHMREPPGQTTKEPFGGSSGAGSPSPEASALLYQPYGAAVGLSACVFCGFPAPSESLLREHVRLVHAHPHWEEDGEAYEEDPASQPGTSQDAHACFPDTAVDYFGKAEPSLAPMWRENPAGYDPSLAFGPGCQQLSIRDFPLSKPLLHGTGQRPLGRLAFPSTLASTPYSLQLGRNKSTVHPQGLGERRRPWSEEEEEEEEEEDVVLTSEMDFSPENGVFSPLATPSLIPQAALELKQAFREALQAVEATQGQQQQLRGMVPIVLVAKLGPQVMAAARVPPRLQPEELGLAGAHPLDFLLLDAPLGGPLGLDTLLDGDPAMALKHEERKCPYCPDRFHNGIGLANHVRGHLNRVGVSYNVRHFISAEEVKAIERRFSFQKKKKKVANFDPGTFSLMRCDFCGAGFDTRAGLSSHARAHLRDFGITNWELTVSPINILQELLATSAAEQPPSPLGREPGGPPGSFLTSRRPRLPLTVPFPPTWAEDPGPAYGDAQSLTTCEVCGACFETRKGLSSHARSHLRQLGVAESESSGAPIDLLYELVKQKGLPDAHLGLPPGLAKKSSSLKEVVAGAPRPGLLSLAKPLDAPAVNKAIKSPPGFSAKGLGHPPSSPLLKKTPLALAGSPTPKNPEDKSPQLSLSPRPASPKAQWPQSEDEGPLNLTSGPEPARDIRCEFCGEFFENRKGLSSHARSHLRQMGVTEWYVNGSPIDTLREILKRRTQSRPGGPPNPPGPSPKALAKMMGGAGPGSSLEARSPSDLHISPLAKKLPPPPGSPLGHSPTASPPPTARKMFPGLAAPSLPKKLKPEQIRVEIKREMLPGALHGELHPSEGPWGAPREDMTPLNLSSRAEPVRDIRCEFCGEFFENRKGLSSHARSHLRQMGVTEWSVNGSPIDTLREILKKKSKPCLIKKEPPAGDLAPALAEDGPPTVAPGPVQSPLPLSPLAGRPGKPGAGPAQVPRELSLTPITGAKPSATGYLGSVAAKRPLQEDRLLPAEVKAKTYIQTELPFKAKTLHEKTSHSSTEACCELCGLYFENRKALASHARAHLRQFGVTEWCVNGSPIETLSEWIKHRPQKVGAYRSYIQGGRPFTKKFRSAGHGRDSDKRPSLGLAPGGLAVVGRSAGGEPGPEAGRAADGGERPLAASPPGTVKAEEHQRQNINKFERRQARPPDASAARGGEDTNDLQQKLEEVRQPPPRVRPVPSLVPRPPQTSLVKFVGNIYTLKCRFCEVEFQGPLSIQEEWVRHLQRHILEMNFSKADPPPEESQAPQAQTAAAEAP
# Sequence (Q96SW2 whole entry, the tested form may be a part): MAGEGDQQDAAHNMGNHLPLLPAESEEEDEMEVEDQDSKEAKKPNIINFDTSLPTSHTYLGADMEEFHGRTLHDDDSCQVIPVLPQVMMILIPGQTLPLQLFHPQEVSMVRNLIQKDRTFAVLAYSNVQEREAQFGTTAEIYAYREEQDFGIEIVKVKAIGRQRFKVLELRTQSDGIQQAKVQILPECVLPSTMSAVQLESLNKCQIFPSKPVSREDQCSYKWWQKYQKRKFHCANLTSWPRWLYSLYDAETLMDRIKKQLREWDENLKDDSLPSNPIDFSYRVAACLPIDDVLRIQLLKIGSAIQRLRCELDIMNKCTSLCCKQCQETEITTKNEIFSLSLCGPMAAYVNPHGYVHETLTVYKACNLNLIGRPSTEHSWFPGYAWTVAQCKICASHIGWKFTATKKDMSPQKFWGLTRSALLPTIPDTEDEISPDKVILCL
# Sequence (Q16531 whole entry partner, the tested form may be a part): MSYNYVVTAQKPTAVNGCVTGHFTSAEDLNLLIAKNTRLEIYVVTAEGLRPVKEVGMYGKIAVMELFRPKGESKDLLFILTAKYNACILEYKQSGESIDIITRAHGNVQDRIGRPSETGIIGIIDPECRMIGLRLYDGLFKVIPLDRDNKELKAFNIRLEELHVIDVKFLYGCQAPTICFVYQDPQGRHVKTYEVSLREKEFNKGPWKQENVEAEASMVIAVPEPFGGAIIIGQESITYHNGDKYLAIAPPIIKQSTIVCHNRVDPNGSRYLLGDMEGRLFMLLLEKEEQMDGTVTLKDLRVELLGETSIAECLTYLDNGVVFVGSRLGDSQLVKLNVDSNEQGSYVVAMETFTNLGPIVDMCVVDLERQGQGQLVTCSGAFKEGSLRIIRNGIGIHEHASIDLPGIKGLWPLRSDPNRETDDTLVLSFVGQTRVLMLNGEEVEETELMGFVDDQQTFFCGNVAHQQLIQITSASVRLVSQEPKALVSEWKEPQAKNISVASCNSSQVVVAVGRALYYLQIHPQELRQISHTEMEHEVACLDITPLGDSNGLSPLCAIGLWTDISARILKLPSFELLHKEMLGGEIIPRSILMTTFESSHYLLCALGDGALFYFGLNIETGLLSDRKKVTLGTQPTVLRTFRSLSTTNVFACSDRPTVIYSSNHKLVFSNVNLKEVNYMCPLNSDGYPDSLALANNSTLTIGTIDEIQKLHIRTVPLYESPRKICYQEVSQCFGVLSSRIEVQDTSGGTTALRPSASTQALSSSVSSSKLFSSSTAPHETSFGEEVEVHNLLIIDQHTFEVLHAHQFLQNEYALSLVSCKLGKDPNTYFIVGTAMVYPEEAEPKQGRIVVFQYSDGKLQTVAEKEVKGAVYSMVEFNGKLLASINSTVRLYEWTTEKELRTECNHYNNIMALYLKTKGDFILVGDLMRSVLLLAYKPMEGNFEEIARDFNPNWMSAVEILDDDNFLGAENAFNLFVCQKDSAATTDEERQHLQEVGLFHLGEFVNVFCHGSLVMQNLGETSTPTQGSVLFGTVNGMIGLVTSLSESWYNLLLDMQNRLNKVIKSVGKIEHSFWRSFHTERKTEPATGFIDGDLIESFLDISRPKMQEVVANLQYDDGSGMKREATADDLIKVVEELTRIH
# test name: Quantification of WIZ protein levels in HiBit tag fusion protein assay (WIZ HiBit assay in 293T cells)
# Format: cell-based
# Design: dose or concentration left out as unconfirmed
# condition: HEK-293T, 100 minus Amax; 293T cells; read-out: % degradation of WIZ (100-Amax)
parameter measured: Dmax (%)

| compound | measured |
| --- | --- |
| CCc1noc(CC)c1C(=O)N1CCCC[C@H]1COc1ccc2c(c1)CN(C1CCC(=O)NC1=O)C2=O (stereo partly shown) [Compound I-72s] | 78.2 |
| CC(C)(C)Cc1cc(C(=O)N2CCCC[C@H]2COc2ccc3c(c2)CN(C2CCC(=O)NC2=O)C3=O)no1 (stereo partly shown) [Compound I-72bz] | 46.7 |

[A] O=C1CCC(N2Cc3cc(OC[C@H]4CCCCN4Cc4ccc5[nH]cnc5c4)ccc3C2=O)C(=O)N1 (stereo partly shown) [Compound I-193]
[B] O=C1CCC(N2Cc3cc(OC[C@@H]4CCCCN4C(=O)c4cccc(OC(F)F)c4)ccc3C2=O)C(=O)N1 (stereo partly shown) [Compound I-72hx]
(Q) Could you tell me which of A and B has the lower Dmax reading? Field: selected label. Fill in the label of the entry you choose.
(A) B
(B: 5.1%, A: 55.7%)
